target: Apoptosis regulator Bcl-2 (Homo sapiens, UniProt P10415); assay: PubChem AID 950
Sequence (P10415 whole entry): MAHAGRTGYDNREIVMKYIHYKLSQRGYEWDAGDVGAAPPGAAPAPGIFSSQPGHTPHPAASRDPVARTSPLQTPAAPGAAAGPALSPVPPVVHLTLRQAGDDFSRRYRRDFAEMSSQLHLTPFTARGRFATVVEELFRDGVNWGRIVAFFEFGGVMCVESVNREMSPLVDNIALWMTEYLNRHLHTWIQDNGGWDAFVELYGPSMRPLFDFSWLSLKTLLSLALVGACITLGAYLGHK
Structures can show the parent of a compound that is named as a salt.
Sorting guide: entries reporting EC50 beneath 5 µM go in the 1 (yes) pile, the rest go in the 0 (no) pile.

{"molecule": "Nc1c(C(=O)NC2CC2)sc2nc3c(c(-c4ccco4)c12)CC/C3=C/c1ccco1", "subjectOfTest": "Apoptosis regulator Bcl-2 (Homo sapiens, UniProt P10415)", "assignedLabel": "1 (yes)"}
{"molecule": "Cc1cc(N)ccc1N1CCCC1", "subjectOfTest": "Apoptosis regulator Bcl-2 (Homo sapiens, UniProt P10415)", "assignedLabel": "0 (no)"}
{"molecule": "COc1ccc2c3c(cccc13)N(C)N=C2C", "subjectOfTest": "Apoptosis regulator Bcl-2 (Homo sapiens, UniProt P10415)", "assignedLabel": "1 (yes)"}
{"molecule": "C=CCn1c(SCC(=O)Nc2ccc3c(c2)OCO3)nnc1-c1cc(Br)ccc1O", "subjectOfTest": "Apoptosis regulator Bcl-2 (Homo sapiens, UniProt P10415)", "assignedLabel": "0 (no)"}
{"molecule": "Nc1c(C(=O)NCC2CCCO2)sc2nc3c(c(-c4ccco4)c12)CC/C3=C\\c1ccco1 (centres undefined)", "subjectOfTest": "Apoptosis regulator Bcl-2 (Homo sapiens, UniProt P10415)", "assignedLabel": "0 (no)"}
{"molecule": "CN1CCc2cccc3c2[C@H]1Cc1ccc(O)c(O)c1-3 [APOMORPHINE HYDROCHLORIDE]", "subjectOfTest": "Apoptosis regulator Bcl-2 (Homo sapiens, UniProt P10415)", "assignedLabel": "0 (no)"}
{"molecule": "Cc1nc2ncccn2c1-c1csc(Nc2ccc(O)cc2)n1", "subjectOfTest": "Apoptosis regulator Bcl-2 (Homo sapiens, UniProt P10415)", "assignedLabel": "1 (yes)"}
{"molecule": "COc1cc(CN=Nc2nn3cnnc3c3ccccc23)ccc1O", "subjectOfTest": "Apoptosis regulator Bcl-2 (Homo sapiens, UniProt P10415)", "assignedLabel": "0 (no)"}
{"molecule": "COc1ccc(CC(=O)Nc2ccc(-c3nc4cc(C)ccc4o3)c(O)c2)cc1OC", "subjectOfTest": "Apoptosis regulator Bcl-2 (Homo sapiens, UniProt P10415)", "assignedLabel": "0 (no)"}
{"molecule": "CCC(/C=C1\\Sc2ccc(OC)cc2N1CCO)=C\\c1sc2ccc(OC)cc2[n+]1CCO", "subjectOfTest": "Apoptosis regulator Bcl-2 (Homo sapiens, UniProt P10415)", "assignedLabel": "0 (no)"}
{"molecule": "CCC(=O)N(CC)C1C(=O)C(=O)c2ccccc2C1=O (centres undefined)", "subjectOfTest": "Apoptosis regulator Bcl-2 (Homo sapiens, UniProt P10415)", "assignedLabel": "1 (yes)"}
{"molecule": "c1ccc(-c2nc(N3CCOCC3)[s+]n2-c2ccccc2)cc1", "subjectOfTest": "Apoptosis regulator Bcl-2 (Homo sapiens, UniProt P10415)", "assignedLabel": "0 (no)"}
{"molecule": "O=[N+]([O-])c1ccc(N=NCc2ccc(O)c(O)c2O)c(S(=O)(=O)N2CCOCC2)c1", "subjectOfTest": "Apoptosis regulator Bcl-2 (Homo sapiens, UniProt P10415)", "assignedLabel": "1 (yes)"}
